Source: patent US20230408517A1

target: recombinant SARS-CoV-2 spike S1 RBD (R319-F541), C-terminal 6-His (SARS-CoV-2, UniProt P0DTC2 319-541); assay: flow cytometry, blocking of binding to hACE-2 cells
READOUT TYPE: percent blocking (%)

1035414 (antibody, V domains shown) VH: QVQLKQSGAELVRPGASVKLSCKTSGYIFTSYWIHWVKQRSGQGLEWIARIYPGTGNTYYNEKFKGKATLTADKSSTTAYMQLSSLKSEDSAVYFCARGEDNLYYYAMDYWGQGTSVTVSS VL: NIVLTQSPASLAVSLGQRATISCRASESVDSYGTSFMHWYQQKPGQPPKLLIYLASNLESGVPASFSGSGSRTDFTLTIDPVEADDAATYYCQQNNEDPWTFGGGTKLEIK :: 85.2
1035753 (antibody, V domains shown) VH: EVQLQQSGAELVRPGALVKLSCKASGFNIKDYYMHWVKQRPEQGLEWIGWIDPENGNTIYDPKFLGKASITADTSSNTAYLQLSSLTSEDTAVYYCARWYYYAMDSWGQGTSVTVSS VL: DIQMTQTTSSLSASLGDRVTISCSASQGISNYLNWYQQKPDGTVKLLIYYTSSLHSGVPSRFSGSGSGTDYSLTISNLEPEDIATYYCQQYSKLPFTFGGGTNLEMK :: 94.7
1035211 (antibody, V domains shown) VH: QVQLQQSGAELARPGASVKMSCKASGYTFTNYTMHWVKQRPGQGLEWIGYINPSSGYTNYNQKFKDKATLTADKSSSTAYMQLSSLTSEDSAVYYCARRNPLYAMDYWGQGTSVTVSS VL: DIKMTQSPSSMYASLGERVTITCKASQDINSYLNWFQQKPGKSPKTLIYRANRLVDGVPSRFSGSGSGQDYSLTISSLEFEDMGIYYCLQYDEFPYTFGGGTKLEIK :: 98.7
